assay protocol: Hagman readings (particle size), titanium dioxide dispersion, Table VI A
Assay type: physicochemical
condition summary: TiO2 50%, pass 4
Experimental: The novel benzoate esters of the invention were tested for pigment and dye dispersing efficacy. Color pastes were prepared by dispersing dry pigment into the oil phase while hand stirring and then passing each mixture through a three roll mill six times, collecting a 16 oz. sample after each pass. The samples collected were subjected to particle size measurements.
result type: Hagman reading (particle size)

[in] // lookup Hagman reading (particle size) for CCCCCCCCCCCCCCCCOC(=O)CCCCCCC/C=C\C[C@H](O)CCCCCC [CR, Cetyl Ricinoleate, reference compound]
[out] ≤ 76 μm

[in] Need Hagman reading (particle size) of CCCCCCC(CCCCCCCCCCC(=O)OCC(CC)CCCC)OC(=O)c1ccccc1 (stereo not shown) , thanks.
[out] ≤ 10 μm

[in] Bench note: what Hagman reading (particle size) did CCCCCCC(CC=CCCCCCCCC(=O)OCC(COC(=O)CCCCCCCC=CCC(CCCCCC)OC(=O)c1ccccc1)OC(=O)CCCCCCCC=CCC(CCCCCC)OC(=O)c1ccccc1)OC(=O)c1ccccc1 (stereo not shown) show?
[out] ≤ 10 μm

Kindly consider the entry below.
[in] Any idea what Hagman reading (particle size) was measured for CCCCCCCCCCCCCCCCOC(=O)CCCCCCCC=CCC(CCCCCC)OC(=O)c1ccccc1 (stereo not shown) [BCR, benzoic acid ester of cetyl-ricinoleate] ?
[out] ≤ 18 μm
